System: Sodium-dependent serotonin transporter (Homo sapiens, UniProt P31645)
Sequence (P31645 whole entry): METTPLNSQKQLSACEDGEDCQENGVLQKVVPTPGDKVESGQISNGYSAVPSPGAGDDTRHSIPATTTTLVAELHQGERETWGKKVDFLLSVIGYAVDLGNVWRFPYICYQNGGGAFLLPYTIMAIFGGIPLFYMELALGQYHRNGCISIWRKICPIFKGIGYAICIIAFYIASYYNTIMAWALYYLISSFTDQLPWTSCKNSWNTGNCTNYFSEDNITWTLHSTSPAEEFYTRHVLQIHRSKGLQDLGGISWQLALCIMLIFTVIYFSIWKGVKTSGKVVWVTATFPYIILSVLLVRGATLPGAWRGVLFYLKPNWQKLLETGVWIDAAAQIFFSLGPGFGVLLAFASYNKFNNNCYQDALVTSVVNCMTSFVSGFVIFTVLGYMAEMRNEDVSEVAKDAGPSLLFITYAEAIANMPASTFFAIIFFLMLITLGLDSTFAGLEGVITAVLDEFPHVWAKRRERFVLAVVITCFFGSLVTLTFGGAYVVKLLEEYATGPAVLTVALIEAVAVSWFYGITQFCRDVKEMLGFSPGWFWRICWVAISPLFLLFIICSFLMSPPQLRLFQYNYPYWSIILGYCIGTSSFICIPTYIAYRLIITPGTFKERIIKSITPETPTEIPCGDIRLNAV
Method Notes: Activity at SERT (unknown origin) assessed as release of [3H]HT
Metric Name: pEC50
Numbers only, as −log10 of the molar value.

CNC(C)C(=O)c1ccc(C(F)(F)F)cc1 (stereo not drawn) ... 6.72
CNC(C)C(=O)c1ccccc1 (stereo not drawn) ... 5.41

Attention now shifts to the item below.
// sample CNC(C)C(=O)c1ccc(C)cc1 (stereo not drawn) [MEPHEDRONE] , its pEC50 was 6.93

---

Method Notes: Displacement of [3H]DTG from sigma receptor (unknown origin)
Set-up: species or system Homo sapiens
Metric Name: pKi
Answers are plain numbers, as −log10 of the molar value.

C=CCN1CC[C@]2(C)c3cc(O)ccc3C[C@H]1[C@H]2C ... 6.82

I need pKi for every entry listed below, if you could help.
1. CC(Cc1ccccc1)NCCCCCc1ccccc1 (centres undefined)
2. C=CCN1CCC2(C)c3cc(O)ccc3CC1C2C (racemic)

OUTPUT:
8.20
6.37

compound `C[C@H](N)Cc1ccccc1` , pKi observed: 4.34

---

Species: Rattus norvegicus
Method Notes: Induction of stimulus generalization in Sprague-Dawley rat trained to discriminate alpha-ET assessed as appropriate responding level to training drug by two lever method
Type: functional
Condition Summary: Rattus norvegicus, Sprague-Dawley
For each record, write down the corresponding ED50.

CCC(N)Cc1c[nH]c2ccccc12 (racemic) [ETRYPTAMINE] ... 1.3 mg/kg
CC[C@@H](N)Cc1c[nH]c2ccccc12 ... 1.6 mg/kg
COc1cc(CC(C)N)c(OC)cc1C (stereo not given) [DOM] ... 0.4 mg/kg
CNC(C)Cc1ccc(OC)cc1 (stereo not given) ... 0.7 mg/kg

In the following, a different compound is considered.
Note to self: ED50 recorded for `CC[C@H](N)Cc1c[nH]c2ccccc12` was 1.3 mg/kg

---

System: 5-hydroxytryptamine receptor 1A (Homo sapiens)
Sequence (P08908 whole entry): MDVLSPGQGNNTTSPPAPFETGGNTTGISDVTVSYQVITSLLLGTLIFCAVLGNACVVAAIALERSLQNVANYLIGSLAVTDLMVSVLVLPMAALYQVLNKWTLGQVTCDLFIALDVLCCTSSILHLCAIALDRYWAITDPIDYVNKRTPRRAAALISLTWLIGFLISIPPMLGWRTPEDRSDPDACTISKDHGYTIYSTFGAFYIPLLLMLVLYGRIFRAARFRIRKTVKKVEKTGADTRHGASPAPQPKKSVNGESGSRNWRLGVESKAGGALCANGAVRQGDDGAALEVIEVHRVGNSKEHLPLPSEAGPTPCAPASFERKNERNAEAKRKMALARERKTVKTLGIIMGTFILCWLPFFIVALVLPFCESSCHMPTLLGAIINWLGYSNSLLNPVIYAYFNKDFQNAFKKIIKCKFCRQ
Metric Name: Ki (nM)
One number for each entry, in nM.

# lookup: `CCCN(CCC)CCc1ccccc1O` on 5-hydroxytryptamine receptor 1A (Homo sapiens), Ki = 400

---

Exercise: for every item that follows, state its recorded pEC50.
System: Sodium-dependent serotonin transporter (Rattus norvegicus, UniProt P31652)
Sequence (P31652 whole entry): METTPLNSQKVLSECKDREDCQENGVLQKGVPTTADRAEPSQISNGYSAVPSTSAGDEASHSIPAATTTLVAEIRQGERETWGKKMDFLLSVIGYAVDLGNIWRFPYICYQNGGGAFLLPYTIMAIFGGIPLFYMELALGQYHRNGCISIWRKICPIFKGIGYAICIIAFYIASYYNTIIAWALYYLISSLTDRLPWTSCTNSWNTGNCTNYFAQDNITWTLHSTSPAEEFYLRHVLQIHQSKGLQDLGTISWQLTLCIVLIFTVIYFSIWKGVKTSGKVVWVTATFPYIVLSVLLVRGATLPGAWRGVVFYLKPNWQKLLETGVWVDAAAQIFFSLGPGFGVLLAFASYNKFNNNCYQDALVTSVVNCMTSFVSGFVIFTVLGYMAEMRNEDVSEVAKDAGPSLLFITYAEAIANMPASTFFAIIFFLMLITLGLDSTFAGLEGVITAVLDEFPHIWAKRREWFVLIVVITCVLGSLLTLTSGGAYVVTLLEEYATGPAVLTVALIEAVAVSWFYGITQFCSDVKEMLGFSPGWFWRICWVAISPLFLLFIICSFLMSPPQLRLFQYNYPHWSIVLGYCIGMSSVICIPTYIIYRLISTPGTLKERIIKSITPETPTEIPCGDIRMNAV
Method Notes: Activity at SERT in rat synaptosomes assessed as release of [3H]HT after 5 mins by liquid scintillation counting method
Give bare numbers, as −log10 of the molar value.

Below, 3 compounds whose answers are already recorded.
CC(N)Cc1ccc2c(c1)OCO2 (racemic) ... 6.80
CNC(C)Cc1ccc2c(c1)OCO2 (racemic) ... 7.14
C[C@H](N)Cc1ccc2c(c1)OCO2 ... 7.00

Continue with the compound presented below.
Lab note: `CC[C@H](N)Cc1c[nH]c2ccccc12` gave pEC50 of 7.70

---

System: 5-hydroxytryptamine receptor 2A (Rattus norvegicus)
Method Notes: Displacement of [3H]ketanserin from 5HT2A in Sprague-Dawley rat frontal cortex membranes measured after 15 mins by scintillation counting method
Set-up: species or system Membrane
Kindly state pKi for each of the entries shown.
Numbers only, as −log10 of the molar value.

CN[C@H](C)Cc1ccc2c(c1)OCO2 ... 5.48

Now for the molecule whose pKi we want.
Quick note, pKi for `CN[C@@H](C)Cc1ccc2c(c1)OCO2` landed at 4.80

---

System: 5-hydroxytryptamine receptor 2A (Rattus norvegicus)
Method Notes: Displacement of [125I](+/-)DOI from rat 5HT2A after 1 hr by beta scintillation counting method
Metric Name: Ki (nM)
Numbers only, in nM.

COc1cc([C@@H](OC)[C@H](C)N)c(OC)cc1Br ... 0.8

Would you kindly look at the next entry?
Entry `COc1cc([C@H](OC)[C@@H](C)N)c(OC)cc1Br` , Ki reported as 17.4

---

System: Trace amine-associated receptor 1 (Rattus norvegicus)
Sequence (Q923Y9 whole entry): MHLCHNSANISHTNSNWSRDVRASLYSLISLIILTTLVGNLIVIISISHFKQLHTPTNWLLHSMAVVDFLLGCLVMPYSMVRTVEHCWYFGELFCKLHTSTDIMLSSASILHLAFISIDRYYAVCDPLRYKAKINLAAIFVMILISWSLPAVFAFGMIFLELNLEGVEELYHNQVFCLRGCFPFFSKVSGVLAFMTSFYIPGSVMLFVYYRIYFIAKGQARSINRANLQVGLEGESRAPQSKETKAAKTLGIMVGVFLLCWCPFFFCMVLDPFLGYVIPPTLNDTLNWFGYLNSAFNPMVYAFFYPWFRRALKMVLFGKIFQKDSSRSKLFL
Method Notes: Agonist activity at rat N-terminal FLAG-tagged TAAR1 expressed in HEK293 cells assessed as [3H]cAMP accumulation measured after 1 hr
Metric Name: EC50

Short answer for NCCc1ccccc1 [PHENETHYLAMINE] : EC50 was 240 nM

---

System: Sodium-dependent dopamine transporter (Rattus norvegicus)
Sequence (P23977 whole entry): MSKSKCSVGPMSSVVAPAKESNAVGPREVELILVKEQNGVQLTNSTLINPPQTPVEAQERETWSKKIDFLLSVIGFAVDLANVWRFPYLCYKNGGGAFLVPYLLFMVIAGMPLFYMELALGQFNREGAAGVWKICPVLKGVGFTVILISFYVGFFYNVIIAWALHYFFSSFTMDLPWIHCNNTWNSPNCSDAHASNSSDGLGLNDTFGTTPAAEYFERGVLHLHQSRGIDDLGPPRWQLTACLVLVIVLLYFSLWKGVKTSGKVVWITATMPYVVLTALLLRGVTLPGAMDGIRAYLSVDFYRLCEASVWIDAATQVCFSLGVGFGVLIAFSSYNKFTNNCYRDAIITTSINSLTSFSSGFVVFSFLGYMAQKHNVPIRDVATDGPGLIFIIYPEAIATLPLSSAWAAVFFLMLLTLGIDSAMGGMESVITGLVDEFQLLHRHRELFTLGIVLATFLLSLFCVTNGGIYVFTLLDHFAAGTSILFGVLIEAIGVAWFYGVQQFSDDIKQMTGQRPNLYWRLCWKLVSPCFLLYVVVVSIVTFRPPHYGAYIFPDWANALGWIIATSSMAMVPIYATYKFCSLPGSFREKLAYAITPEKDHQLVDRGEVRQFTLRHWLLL
Method Notes: Activity at DAT in rat synaptosomes assessed as release of [3H]DA after 5 mins by liquid scintillation counting method
Metric Name: log10(EC50) (log10 of the value in nM)
Log10 applied to EC50; unit prior to transform: nM.

Use these answered entries as a reference point.
CNC(C)Cc1ccc2c(c1)OCO2 (racemic) [MIDOMAFETAMINE] ... 2.44
CC[C@H](N)Cc1c[nH]c2ccccc12 ... 1.81
C[C@H](N)Cc1ccc2c(c1)OCO2 ... 1.99

Kindly give each listed record's log10(EC50).
1. CN[C@H](C)Cc1ccc2c(c1)OCO2
2. CC(N)Cc1ccc2c(c1)OCO2 (racemic) [TENAMFETAMINE]
3. C[C@@H](N)Cc1ccc2c(c1)OCO2
4. CC[C@@H](N)Cc1c[nH]c2ccccc12
5. CN[C@H](C)Cc1ccc(OC)cc1
6. CN[C@@H](C)Cc1ccc(OC)cc1

OUTPUT:
1. 3.57
2. 2.28
3. 2.95
4. 2.95
5. 3.20
6. 3.00

Provide reported log10(EC50) for each item, in the same order as listed.
1. CN[C@@H](C)Cc1ccc2c(c1)OCO2
2. CN[C@@H](C)C(=O)c1ccccc1

OUTPUT:
1. 2.15
2. 1.17

---

System: Sigma non-opioid intracellular receptor 1 (Cavia porcellus, UniProt Q60492)
Sequence (Q60492 whole entry): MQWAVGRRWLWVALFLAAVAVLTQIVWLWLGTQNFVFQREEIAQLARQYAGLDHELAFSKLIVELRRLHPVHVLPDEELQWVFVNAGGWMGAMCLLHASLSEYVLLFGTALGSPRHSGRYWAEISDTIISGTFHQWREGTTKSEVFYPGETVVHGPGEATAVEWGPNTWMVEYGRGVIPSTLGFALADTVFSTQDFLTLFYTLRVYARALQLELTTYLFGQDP
Method Notes: Displacement of (+)-[3H]pentazocine from guinea pig brain membrane sigma1 receptor by scintillation spectrometric method
Metric Name: pKi
One number for each entry, as −log10 of the molar value.

c1ccc(CCCCCN2CCCC(c3ccccc3)C2)cc1 (configuration not stated) ... 9.85
CC1CCN(CCCCCc2ccccc2)CC1 ... 10.15

Hi team, please reply with pKi for each item in this list.
1. C[C@@H](Cc1ccccc1)NCCCCCc1ccccc1
2. c1ccc(CCCCCN2CCCCC2Cc2ccccc2)cc1 (configuration not stated)
3. C[C@H](Cc1ccccc1)NCCCCCc1ccccc1
4. c1ccc(CCCCCN2CCCCC2)cc1
5. CCCCCCN(C)CCc1ccccc1

OUTPUT:
9.05
10.10
9.30
9.42
7.32

---

System: Sodium-dependent dopamine transporter (Rattus norvegicus)
Method Notes: Inhibition of DAT in Sprague-Dawley rat synaptosomes assessed as reduction in [3H]dopamine uptake by liquid scintillation counting method
Metric Name: IC50 (nM)
Give bare numbers, in nM.

The measured IC50 associated with `CCC[C@@H](C(=O)c1ccc2c(c1)OCO2)N1CCCC1` reads 2.1

---

System: Sodium-dependent serotonin transporter (Rattus norvegicus, UniProt P31652)
Method Notes: Activity at SERT in rat synaptosomes assessed as release of [3H]HT after 5 mins by liquid scintillation counting method
Metric Name: EC50 (nM)
Give bare numbers, in nM.

Here is how some compounds turned out for EC50.
CN[C@@H](C)Cc1ccc2c(c1)OCO2 ... 74
CC[C@@H](N)Cc1c[nH]c2ccccc12 ... 68
CN[C@@H](C)Cc1ccc(OC)cc1 ... 41

Provide reported EC50 for each item, in the same order as listed.
1. CN[C@H](C)Cc1ccc(OC)cc1
2. CN[C@H](C)Cc1ccc2c(c1)OCO2
3. C[C@@H](N)Cc1ccc2c(c1)OCO2

OUTPUT:
1. 134
2. 340
3. 310

compound `CN[C@@H](C)C(=O)c1ccccc1` , EC50 observed: 1770

---

System: 5-hydroxytryptamine receptor 2A (Rattus norvegicus, UniProt P14842)
Sequence (P14842 whole entry): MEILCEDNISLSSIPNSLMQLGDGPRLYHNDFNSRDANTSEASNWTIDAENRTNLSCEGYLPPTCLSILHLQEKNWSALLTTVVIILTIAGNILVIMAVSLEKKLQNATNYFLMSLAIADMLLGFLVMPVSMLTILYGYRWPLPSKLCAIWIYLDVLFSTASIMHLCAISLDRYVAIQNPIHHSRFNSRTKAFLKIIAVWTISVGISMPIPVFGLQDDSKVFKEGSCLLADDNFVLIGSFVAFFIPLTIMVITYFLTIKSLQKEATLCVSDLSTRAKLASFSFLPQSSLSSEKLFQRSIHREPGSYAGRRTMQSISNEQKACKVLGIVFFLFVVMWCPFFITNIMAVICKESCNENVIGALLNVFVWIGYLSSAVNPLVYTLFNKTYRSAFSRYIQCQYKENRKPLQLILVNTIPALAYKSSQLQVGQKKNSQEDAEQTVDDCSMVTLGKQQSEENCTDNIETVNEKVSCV
Method Notes: Displacement of [3H]ketanserin from 5HT2A in Sprague-Dawley rat cortex membranes measured after 15 mins
Type: cell membranes
Metric Name: pKi
Answers are plain numbers, as −log10 of the molar value.

Reported 5-hydroxytryptamine receptor 2A (Rattus norvegicus, UniProt P14842) pKi for item COc1cc(CC(C)N(C)C)c(OC)cc1Br (stereo unspecified) was 6.42

---

System: 5-hydroxytryptamine receptor 2A (Rattus norvegicus)
Method Notes: Displacement of [125I]DOI from rat cortex 5HT2A after 1 hr by beta scintillation counting method
Metric Name: pKi
Give bare numbers, as −log10 of the molar value.

// pKi value for `C[C@H](N)Cn1ncc2ccc3c(c21)CCCO3` : 9.89

Reference source for all entries: ChEMBL document CHEMBL4007451
